Ref: PubChem BioAssay AID1963985

Tested on: 252836-082-R-J2-PDC tumor spheroids, viability
Experiment: Anticancer human tumor 252836-082-R-J2-PDC patient-derived head and neck squamous cell carcinoma cell line growth inhibition [PI3K]
Details: second compound 10 µM; first compound 0.0316 µM; hits give low values; spheroids with HUVEC and MSC
Source text: Combinatorial screen of targeted agents with the PI3K inhibitors inavolisib, alpelisib, duvelisib, and copanlisib in multi-cell type tumor spheroids A high-throughput screen of multi-cell type tumor spheroids was designed to identify active combinations of targeted small molecules and PI3K pathway inhibitors. […] Compounds. […] If the clinical Cmax for an agent had not been determined, the highest concentration tested was 10 microM. […]
Response field label: string, one of met (viability, T/C strictly below 40%) or not met.

{"MOLECULE": "CC(C)NCC(C(=O)N1CCN(c2ncnc3c2C(C)CC3O)CC1)c1ccc(Cl)cc1 (stereo not drawn) + Cc1nc(NC(=O)N2CCCC2C(N)=O)sc1-c1ccnc(C(C)(C)C(F)(F)F)c1", "CLASS NAME": "met"}
{"MOLECULE": "CC1(C)CCC(CN2CCN(c3ccc(C(=O)NS(=O)(=O)c4ccc(NCC5CCOCC5)c([N+](=O)[O-])c4)c(Oc4cnc5[nH]ccc5c4)c3)CC2)=C(c2ccc(Cl)cc2)C1 + CC(Nc1ncnc2nc[nH]c12)c1cc2cccc(Cl)c2c(=O)n1-c1ccccc1", "CLASS NAME": "not met"}
{"MOLECULE": "CC(C)NCC(C(=O)N1CCN(c2ncnc3c2C(C)CC3O)CC1)c1ccc(Cl)cc1 (stereo not drawn) + CC(Nc1ncnc2nc[nH]c12)c1cc2cccc(Cl)c2c(=O)n1-c1ccccc1", "CLASS NAME": "not met"}
{"MOLECULE": "Cn1ncc(Cl)c1-c1cc(C(=O)NC(CN)Cc2cccc(F)c2)sc1Cl (stereo not drawn) + CC(Nc1ncnc2nc[nH]c12)c1cc2cccc(Cl)c2c(=O)n1-c1ccccc1", "CLASS NAME": "not met"}
{"MOLECULE": "CNC(=O)c1ccc(N2C(=S)N(c3ccc(C#N)c(C(F)(F)F)c3)C(=O)C2(C)C)cc1F + Cc1nc(NC(=O)N2CCCC2C(N)=O)sc1-c1ccnc(C(C)(C)C(F)(F)F)c1", "CLASS NAME": "met"}
{"MOLECULE": "C[C@@H](NC(=O)c1ncnc(N)c1Cl)c1ncc(C(=O)Nc2cc(C(F)(F)F)c(Cl)cn2)s1 + Cc1nc(NC(=O)N2CCCC2C(N)=O)sc1-c1ccnc(C(C)(C)C(F)(F)F)c1", "CLASS NAME": "met"}
{"MOLECULE": "C#Cc1c(F)ccc2cc(O)cc(-c3ncc4c(N5CC6CCC(C5)N6)nc(OCC56CCCN5CC(F)C6)nc4c3F)c12 (stereo not drawn) + Cc1nc(NC(=O)N2CCCC2C(N)=O)sc1-c1ccnc(C(C)(C)C(F)(F)F)c1", "CLASS NAME": "met"}

====

test system: 252836-082-R-J2-PDC tumor spheroids, viability; test: Anticancer human tumor 252836-082-R-J2-PDC cell line growth inhibition [PI3K]; conditions: second compound 3.16 µM; first compound 0.01 µM; hits give low values; spheroids with HUVEC and MSC;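 further: spheroids exposed to agents for seven days before readout; percent of vehicle DMSO control viability so 100% = untreated growth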
MEASUREMENT NAME: viability, T/C (%)

{"COMPOUND": "CC(=O)c1c(C)c2cnc(Nc3ccc(N4CCNCC4)cn3)nc2n(C2CCCC2)c1=O + CC(Nc1ncnc2nc[nH]c12)c1cc2cccc(Cl)c2c(=O)n1-c1ccccc1", "REPORTED VALUE": 74.2}
{"COMPOUND": "Cn1ncnc1[C@H]1c2n[nH]c(=O)c3cc(F)cc(c23)N[C@@H]1c1ccc(F)cc1 + CC(Nc1ncnc2nc[nH]c12)c1cc2cccc(Cl)c2c(=O)n1-c1ccccc1", "REPORTED VALUE": 64.3}
{"COMPOUND": "Cn1ncnc1[C@H]1c2n[nH]c(=O)c3cc(F)cc(c23)N[C@@H]1c1ccc(F)cc1 + Cc1nc(NC(=O)N2CCCC2C(N)=O)sc1-c1ccnc(C(C)(C)C(F)(F)F)c1", "REPORTED VALUE": 44.7}

====

Consider the following molecules and their measured viability, T/C readings.
test system: 252836-082-R-J2-PDC tumor spheroids, viability; experiment: Anticancer human tumor 252836-082-R-J2-PDC cell line growth inhibition [PI3K]; settings: second compound 0.0316 µM; first compound 0.1 µM; hits give low values; spheroids with HUVEC and MSC;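 further: spheroids exposed to agents for seven days before readout; percent of vehicle DMSO control viability so 100% = untreated growth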
MEASUREMENT NAME: viability, T/C (%)

{"MOLECULE": "C[C@@H](NC(=O)c1ncnc(N)c1Cl)c1ncc(C(=O)Nc2cc(C(F)(F)F)c(Cl)cn2)s1 + CC(Nc1ncnc2nc[nH]c12)c1cc2cccc(Cl)c2c(=O)n1-c1ccccc1", "MEASUREMENT NAME": "viability, T/C", "REPORTED VALUE": 97.1}
{"MOLECULE": "CC(Cn1ccc(-c2ccc(C#N)c(Cl)c2)n1)NC(=O)c1cc(C(C)O)[nH]n1 (stereo not drawn) + COc1c(OCCCN2CCOCC2)ccc2c3n(c(=NC(=O)c4cnc(N)nc4)nc12)CCN3", "MEASUREMENT NAME": "viability, T/C", "REPORTED VALUE": 62.8}
{"MOLECULE": "CCCS(=O)(=O)Nc1ccc(F)c(C(=O)c2c[nH]c3ncc(-c4ccc(Cl)cc4)cc23)c1F + CC(Nc1ncnc2nc[nH]c12)c1cc2cccc(Cl)c2c(=O)n1-c1ccccc1", "MEASUREMENT NAME": "viability, T/C", "REPORTED VALUE": 93.7}

====

test system: 252836-082-R-J2-PDC tumor spheroids, viability; assay: Anticancer human tumor 252836-082-R-J2-PDC cell line growth inhibition [PI3K]; conditions: second compound 0.0316 µM; first compound 0.1 µM; hits give low values; spheroids with HUVEC and MSC;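 further: spheroids exposed to agents for seven days before readout; percent of vehicle DMSO control viability so 100% = untreated growth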

{"COMPOUND": "Cn1nccc1Nc1nccc(-c2ccn(C(CO)c3ccc(Cl)c(F)c3)c(=O)c2)n1 (stereo not given) + CC(Nc1ncnc2nc[nH]c12)c1cc2cccc(Cl)c2c(=O)n1-c1ccccc1", "viability, T/C / %": 99.5}
{"COMPOUND": "CC(C)NCC(C(=O)N1CCN(c2ncnc3c2C(C)CC3O)CC1)c1ccc(Cl)cc1 (stereo not given) + CC(Nc1ccc2c(c1)OCCn1cc(N3C(=O)OCC3C(F)F)nc1-2)C(N)=O", "viability, T/C / %": 82.3}
{"COMPOUND": "CC(=O)c1c(C)c2cnc(Nc3ccc(N4CCNCC4)cn3)nc2n(C2CCCC2)c1=O + CC(Nc1ccc2c(c1)OCCn1cc(N3C(=O)OCC3C(F)F)nc1-2)C(N)=O", "viability, T/C / %": 82.4}
{"COMPOUND": "C#Cc1c(F)ccc2cc(O)cc(-c3ncc4c(N5CC6CCC(C5)N6)nc(OCC56CCCN5CC(F)C6)nc4c3F)c12 (stereo not given) + CC(Nc1ccc2c(c1)OCCn1cc(N3C(=O)OCC3C(F)F)nc1-2)C(N)=O", "viability, T/C / %": 67.4}
{"COMPOUND": "CNC(=O)c1ccc(N2C(=S)N(c3ccc(C#N)c(C(F)(F)F)c3)C(=O)C2(C)C)cc1F + COc1c(OCCCN2CCOCC2)ccc2c3n(c(=NC(=O)c4cnc(N)nc4)nc12)CCN3", "viability, T/C / %": 60.1}

====

test system: 252836-082-R-J2-PDC tumor spheroids, viability; assay: Anticancer human tumor 252836-082-R-J2-PDC cell line growth inhibition [PI3K]; settings: second compound 10 µM; first compound 0.01 µM; hits give low values; spheroids with HUVEC and MSC;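 further: spheroids exposed to agents for seven days before readout; percent of vehicle DMSO control viability so 100% = untreated growth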
Listed compounds paired with reported viability, T/C

{"COMPOUND": "Cn1ncnc1[C@H]1c2n[nH]c(=O)c3cc(F)cc(c23)N[C@@H]1c1ccc(F)cc1 + CC(Nc1ncnc2nc[nH]c12)c1cc2cccc(Cl)c2c(=O)n1-c1ccccc1", "ASSAY SYSTEM": "252836-082-R-J2-PDC tumor spheroids, viability", "viability, T/C (%)": 63.4}
{"COMPOUND": "CC(C)n1nc(-c2ccc3oc(N)nc3c2)c2c(N)ncnc21 + Cc1nc(NC(=O)N2CCCC2C(N)=O)sc1-c1ccnc(C(C)(C)C(F)(F)F)c1", "ASSAY SYSTEM": "252836-082-R-J2-PDC tumor spheroids, viability", "viability, T/C (%)": 35.4}
{"COMPOUND": "CC(=O)c1c(C)c2cnc(Nc3ccc(N4CCNCC4)cn3)nc2n(C2CCCC2)c1=O + CC(Nc1ncnc2nc[nH]c12)c1cc2cccc(Cl)c2c(=O)n1-c1ccccc1", "ASSAY SYSTEM": "252836-082-R-J2-PDC tumor spheroids, viability", "viability, T/C (%)": 61.1}
{"COMPOUND": "CC(C)n1nc(-c2ccc3oc(N)nc3c2)c2c(N)ncnc21 + CC(Nc1ncnc2nc[nH]c12)c1cc2cccc(Cl)c2c(=O)n1-c1ccccc1", "ASSAY SYSTEM": "252836-082-R-J2-PDC tumor spheroids, viability", "viability, T/C (%)": 47}
{"COMPOUND": "Cn1ncnc1[C@H]1c2n[nH]c(=O)c3cc(F)cc(c23)N[C@@H]1c1ccc(F)cc1 + Cc1nc(NC(=O)N2CCCC2C(N)=O)sc1-c1ccnc(C(C)(C)C(F)(F)F)c1", "ASSAY SYSTEM": "252836-082-R-J2-PDC tumor spheroids, viability", "viability, T/C (%)": 26.5}
{"COMPOUND": "CCN1CCN(Cc2ccc(Nc3ncc(F)c(-c4cc(F)c5nc(C)n(C(C)C)c5c4)n3)nc2)CC1 + Cc1nc(NC(=O)N2CCCC2C(N)=O)sc1-c1ccnc(C(C)(C)C(F)(F)F)c1", "ASSAY SYSTEM": "252836-082-R-J2-PDC tumor spheroids, viability", "viability, T/C (%)": 42.1}
{"COMPOUND": "CCN1CCN(Cc2ccc(Nc3ncc(F)c(-c4cc(F)c5nc(C)n(C(C)C)c5c4)n3)nc2)CC1 + CC(Nc1ncnc2nc[nH]c12)c1cc2cccc(Cl)c2c(=O)n1-c1ccccc1", "ASSAY SYSTEM": "252836-082-R-J2-PDC tumor spheroids, viability", "viability, T/C (%)": 62.8}
{"COMPOUND": "CC(=O)c1c(C)c2cnc(Nc3ccc(N4CCNCC4)cn3)nc2n(C2CCCC2)c1=O + Cc1nc(NC(=O)N2CCCC2C(N)=O)sc1-c1ccnc(C(C)(C)C(F)(F)F)c1", "ASSAY SYSTEM": "252836-082-R-J2-PDC tumor spheroids, viability", "viability, T/C (%)": 35.7}
